test: protein stability index of a GFP-peptide fusion (GPS, HEK-293T) (PSI 1-6); higher = more stable; conditions: treatment: MLN4924 1 uM, 8 h; c terminus: a fixed tail appended;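 also: 24-mer peptide tiles fused after GFP, lentivirally expressed, FACS-sorted into six equal bins by GFP/DsRed ratio, decoded by Illumina sequencing, PSI is the read-weighted mean bin number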
Below, each entry is listed with its recorded protein stability index.
Please give only the number in your answer, with no unit.

# sequence, protein stability index
rows = [
    ("SKPSSDLLDLQPDFSSGGAAAAAA [SNAP91]", 5.03),
    ("GGMMPPGPGIPPLMPGMPPGMPPP [ZNF207]", 4.09),
    ("VYSDLCEAAEAVRPEERKTCRNPA [ADAMTSL2]", 4.5),
    ("VTATDQKVEKMLISSIKEKYPSHS [IMPA1]", 4.27),
    ("TRRHPGGSRVISHYAGQDATDPFV [FADS1]", 3.86),
]

(Q) Recall and state the measured protein stability index for NLHSLALDFCDFTAEMARVLTDSN [FBXO33] .
(A) 2.49

(Q) Recall and state the measured protein stability index for IKTTLRELLVYIVFLVDICLLTYG [PKD2L1] .
(A) 2.93

(Q) Recall and state the measured protein stability index for QGSLSNTYLSKVDPDGKKIKQIQQ [FBXO33] .
(A) 4.34

(Q) Recall and state the measured protein stability index for ILEHAHRGEQTTSQVSWEQDLKLF [FCHSD1] .
(A) 3.53

(Q) Recall and state the measured protein stability index for FTTSILRHWCMKHDELLAEHIKSL [INTS3] .
(A) 2.17
